Cited source: patent US7666885B2

Reported log10 IC50 is given for each of the following compounds.
targetUnderTest: GSK-3β (Homo sapiens)
Construct: purchased Sigma
Sequence (P49841 whole entry, species assumed): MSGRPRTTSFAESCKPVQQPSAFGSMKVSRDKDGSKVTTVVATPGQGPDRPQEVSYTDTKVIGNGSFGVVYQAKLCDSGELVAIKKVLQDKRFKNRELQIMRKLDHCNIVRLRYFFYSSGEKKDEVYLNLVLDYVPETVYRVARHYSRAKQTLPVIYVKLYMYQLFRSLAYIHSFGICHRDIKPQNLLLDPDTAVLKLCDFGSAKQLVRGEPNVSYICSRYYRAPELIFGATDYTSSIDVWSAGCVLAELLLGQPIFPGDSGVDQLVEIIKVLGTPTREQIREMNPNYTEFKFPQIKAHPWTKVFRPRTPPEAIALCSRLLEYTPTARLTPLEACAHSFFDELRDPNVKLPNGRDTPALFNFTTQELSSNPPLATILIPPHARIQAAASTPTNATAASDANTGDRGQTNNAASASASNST
testName: GSK-3β inhibition (radiometric, GS 1 peptide)
Format: biochemical
conditions: GSK-3 enzyme (Sigma), 15 μM ATP, GS 1 peptide; Tables 3, 3a, 4; read-out: IC50
measurementType: log10 IC50 (log10 of the value in µM)

{"compound": "CCn1sc(=O)n(Cc2ccccc2)c1=O", "log10 IC50": 0.85}
{"compound": "Cn1sc(=O)n(-c2ccc(Cl)cc2)c1=O", "log10 IC50": 0.60}
{"compound": "O=C(CN1C(=O)CSC1=S)c1ccccc1", "log10 IC50": 1.70}
{"compound": "CCn1sc(=O)n(CCc2ccccc2)c1=O", "log10 IC50": 0.90}
{"compound": "CCn1sc(=NO)n(Cc2ccccc2)c1=O", "log10 IC50": 0.78}
{"compound": "CCn1sc(=NO)n(-c2ccccc2)c1=O", "log10 IC50": 2.00}
{"compound": "CCOC(=O)Cn1c(=O)sn(C(C)C)c1=O", "log10 IC50": 0.85}
{"compound": "CCOC(=O)Cn1sc(=O)n(Cc2ccccc2)c1=O", "log10 IC50": 0.60}
{"compound": "CCn1sc(=O)n(Cc2ccccc2)c1=S", "log10 IC50": 0.78}
{"compound": "O=c1sn(-c2ccccc2)c(=S)n1-c1ccccc1", "log10 IC50": 1.30}
{"compound": "CCOC(=O)Cn1sc(=O)n(CC(=O)OCC)c1=O", "log10 IC50": 0.60}
{"compound": "Cn1sc(=O)n(-c2ccccc2)c1=O", "log10 IC50": 0.30}
{"compound": "CCn1sc(=O)n(CC)c1=O", "log10 IC50": 1.30}
{"compound": "CCn1c(=O)sn(C2CCCCC2)c1=O", "log10 IC50": 1.00}
{"compound": "Cn1sc(=O)n(-c2ccc(Br)cc2)c1=O", "log10 IC50": 0.48}
{"compound": "CCn1c(=O)sn(C)c1=O", "log10 IC50": 0.70}
{"compound": "O=C1CSC(=S)N1CCc1ccccc1", "log10 IC50": 1.54}
{"compound": "O=c1[nH]sc(=O)n1Cc1ccccc1", "log10 IC50": 1.70}
{"compound": "CCOC(=O)Cn1c(=O)sn(C(=O)c2ccccc2)c1=O", "log10 IC50": 0.60}
{"compound": "Cn1sc(=O)n(-c2ccc(F)cc2)c1=O", "log10 IC50": 0.60}
{"compound": "CCn1sc(=O)n(-c2ccc([N+](=O)[O-])cc2)c1=O", "log10 IC50": 0.93}
{"compound": "CCOC(=O)Cn1c(=O)sn(C)c1=O [Compound 45]", "log10 IC50": 0.30}
{"compound": "CCCn1sc(=O)n(CC)c1=O", "log10 IC50": 1.00}
{"compound": "O=c1sn(Cc2ccccc2)c(=S)n1Cc1ccccc1", "log10 IC50": 1.00}
{"compound": "O=C(c1ccccc1)n1sc(=O)n(Cc2ccccc2)c1=O", "log10 IC50": 0.48}
{"compound": "O=C1C=CC(=O)C1", "log10 IC50": 1.08}
{"compound": "CCn1c(=O)sn(C(C)C)c1=O", "log10 IC50": 1.54}
{"compound": "CCOC(=O)Cn1c(=O)sn(C)c1=O [Compound 6]", "log10 IC50": 0.70}
{"compound": "Cc1ccc(-n2c(=O)sn(C)c2=O)cc1", "log10 IC50": 0.70}
